Reported apparent KD of MS2 coat protein by item:
system: MS2 coat protein; assay: apparent KD of MS2 coat protein; higher = weaker reporter binding; conditions: Eterna round: R107; input ligand: arginine 13.2 mM
Kindly report the value followed by its unit.

>>> print(df.to_string())
                         construct_sequence   target_of_assay  test_result
0  AAUAACUUGAGGAUCACCCAAGUAAAAGAUACCAGAGUGAUGAUCCUCCCUUGGCAGCUUAACGCUGAUUGAUUACAAUCAGCGA  MS2 coat protein      63.2 nM
1  ACAUGAGGAUCACCCAUGUACAUAAGGGAAGGAGCGCGGUGAAACGCAGGUAGGUCGCCCAUAAUAACAAACAUUAAAUUCAUGU [LeftA2]  MS2 coat protein        28 nM
2  AGCUCAGAGAGUGAUACCAGACUACAUGAGGAUCACCCAUGUUACUUUUAAAUAUCAUGAGUCCCUUGGCAGCACAAGAAGAGCA [JR_ExcTheophyB_Sub016]  MS2 coat protein      40.1 nM
3  UGUAUGUGAUCUGAUACCAGUGACACGAAAGUGAAUCGCUUGAGGAUCACCCAAGUAAAACACCCUUGGCAGCAGAUCGCAUACU [Full moving switch bubble 1]  MS2 coat protein      20.3 nM
4  CCAUAGGGUAAAUACAUAAUCAUAUCUGAAGGAGCGUGGAUAAACACAGGUAGGUCGCAGAAUCACAUGAGGAUCACCCAUGUCU [Same State Arginine A GF11]  MS2 coat protein      24.5 nM

Exercise: Could you share which apparent KD of MS2 coat protein value was measured for GGGCGCUAUCCCGCGAGGGAUAGCGUUCUUCGAGGACCGGUACGGCCGCCACUCGAACGAGUGGUGACAUGAGGAUCACCCAUGU [Paa] ?
Solution: 35.6 nM
